- test_target: Oatp1b2 (Mus musculus, UniProt Q9JJL3)
- protocol_notes: Untargeted metabolomics of plasma from untreated wild-type and Oatp1b2(−/−) mice
- test_parameters: plasma of untreated Oatp1b2-deficient mice; raw area counts rescaled to median = 1
endpoint_label: Mean value KO

P. CC(C(=O)O)c1ccc(O)cc1 (stereo not drawn) [2-(4-hydroxyphenyl)propionate]
Q. C[C@H](CCC(=O)NCCS(=O)(=O)O)[C@H]1CC[C@H]2[C@@H]3CC[C@@H]4C[C@H](O)CC[C@]4(C)[C@H]3C[C@H](O)[C@]12C [taurodeoxycholate]
q: Given the two records P and Q , choose the one whose Mean value KO value is lower. Please identify the chosen entry by its label.
a: P

a. CC(=O)N[C@@H](CC[S+](C)[O-])C(=O)O (stereo partly drawn) [N-acetylmethionine sulfoxide]
b. CCCCCC=CCC=CCCCCCCCC(=O)OCC(O)COP(=O)(O)OCC(O)CO (stereo not drawn) [1-linoleoyl-GPG (18:2)]
q: Identify the entry with the larger Mean value KO. Options: a and b Output the label that corresponds to your choice.
a: b

P. CC(=O)N[C@@H](CC(=O)c1ccccc1N)C(=O)O [N-acetylkynurenine (2)]
Q. CCc1ccc(OS(=O)(=O)[O-])cc1.[K+] [4-ethylphenylsulfate]
R. O=C(O)CCCCCCCCCCCCC(=O)O [tetradecanedioate (C14-DC)]
q: In this exercise, place the 3 molecules in ascending sequence of their recorded Mean value KO. Sort the labels as requested; that list is your answer.
a: P, R, Q
(P: 1.17, R: 1.96, Q: 4.08)

====

- test_target: Oatp1b2 (Mus musculus)
- protocol_notes: Untargeted metabolomics of plasma from untreated wild-type and Oatp1b2(−/−) mice
- test_parameters: plasma of untreated Oatp1b2-deficient (KO) vs wild-type (WT) mice; semi-quantitative; positive = higher in KO; n = 6 per group
endpoint_label: Fold of Change KO/WT

As a guide, the following entries are already answered.
| compound | test_target | Fold of Change KO/WT |
| --- | --- | --- |
| C[N+](C)(C)CCOP(=O)([O-])OC[C@H](O)CO | Oatp1b2 (Mus musculus) | 1.34 |
| CCCCCCCC/C=C\CCCCCCCC(=O)OCC(O)COP(=O)(O)OCC(O)CO (stereo not shown) | Oatp1b2 (Mus musculus) | 8.19 |

P. C[C@H](CCC(=O)O)[C@H]1CC[C@H]2[C@@H]3[C@H](O)C[C@@H]4C[C@H](O)CC[C@]4(C)[C@H]3CC[C@]12C [chenodeoxycholate]
Q. O=C1CC(C(=O)O)C(C(=O)O)O1 (stereo not shown)
q: Which of these two has the smaller recorded Fold of Change KO/WT: P or Q ? Respond with the label that goes with your answer.
a: Q

====

- test_target: Oatp1b2 (Mus musculus, UniProt Q9JJL3)
- Sequence (Q9JJL3 1-689): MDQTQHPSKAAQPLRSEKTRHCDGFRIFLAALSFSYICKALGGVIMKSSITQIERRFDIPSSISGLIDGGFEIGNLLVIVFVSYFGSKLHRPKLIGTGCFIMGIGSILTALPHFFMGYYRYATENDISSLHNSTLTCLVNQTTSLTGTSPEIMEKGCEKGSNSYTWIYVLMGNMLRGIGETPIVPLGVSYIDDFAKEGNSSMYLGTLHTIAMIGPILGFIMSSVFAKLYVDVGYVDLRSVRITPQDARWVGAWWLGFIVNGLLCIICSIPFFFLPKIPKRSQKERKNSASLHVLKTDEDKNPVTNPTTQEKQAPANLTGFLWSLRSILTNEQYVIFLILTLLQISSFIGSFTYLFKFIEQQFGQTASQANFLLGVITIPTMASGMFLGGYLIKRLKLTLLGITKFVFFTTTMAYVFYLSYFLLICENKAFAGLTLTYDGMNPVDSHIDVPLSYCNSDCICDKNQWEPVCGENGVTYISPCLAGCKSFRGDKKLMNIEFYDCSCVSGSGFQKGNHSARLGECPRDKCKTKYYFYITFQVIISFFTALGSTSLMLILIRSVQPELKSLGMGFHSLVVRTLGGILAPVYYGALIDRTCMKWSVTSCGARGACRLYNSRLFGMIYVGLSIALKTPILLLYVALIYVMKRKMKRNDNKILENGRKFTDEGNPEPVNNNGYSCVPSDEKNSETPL
- protocol_notes: Untargeted metabolomics of plasma from untreated wild-type and Oatp1b2(−/−) mice
- test_parameters: plasma of untreated Oatp1b2-deficient (KO) vs wild-type (WT) mice; semi-quantitative; positive = higher in KO; n = 6 per group
endpoint_label: Fold of Change KO/WT

Observe how each entry below is paired with its result.
| compound | Fold of Change KO/WT |
| --- | --- |
| C[C@H](CCC(=O)O)[C@H]1CC[C@H]2[C@@H]3[C@H](O)[C@@H](O)[C@@H]4C[C@H](O)CC[C@]4(C)[C@H]3CC[C@]12C [alpha-muricholate] | 45.2 |
| O=C(O)CCc1ccccc1.O=C(O)CCc1ccccc1 [3-phenylpropionate (hydrocinnamate)] | 1.62 |

1. CCCCCCCCCCCCCCCCCC(=O)OC[C@@H](O)COP(=O)(O)OCCN
2. C[C@H](CCC(=O)O)[C@H]1CC[C@H]2[C@@H]3[C@@H](O)[C@@H](O)[C@@H]4C[C@H](O)CC[C@]4(C)[C@H]3CC[C@]12C [beta-muricholate]
q: Could you point out whether the larger Fold of Change KO/WT belongs to 1 or to 2 ? Answer with the label corresponding to your selection.
a: 2

a. CCCCCC=CCC=CCCCCCCCC(=O)OCC(O)COP(=O)(O)OCC(O)CO (stereo not shown)
b. CCCCCCCCCCCCCCCC(=O)OC[C@@H](O)COP(=O)([O-])OCC[N+](C)(C)C
q: Between the entries labeled a and b , whose measured Fold of Change KO/WT is lower? // output: label of the selected item
a: b
(b: 1.29, a: 3.71)
